# assayed_system: Sirt6 (Homo sapiens, UniProt Q8N6T7)
# Sequence (Q8N6T7 whole entry): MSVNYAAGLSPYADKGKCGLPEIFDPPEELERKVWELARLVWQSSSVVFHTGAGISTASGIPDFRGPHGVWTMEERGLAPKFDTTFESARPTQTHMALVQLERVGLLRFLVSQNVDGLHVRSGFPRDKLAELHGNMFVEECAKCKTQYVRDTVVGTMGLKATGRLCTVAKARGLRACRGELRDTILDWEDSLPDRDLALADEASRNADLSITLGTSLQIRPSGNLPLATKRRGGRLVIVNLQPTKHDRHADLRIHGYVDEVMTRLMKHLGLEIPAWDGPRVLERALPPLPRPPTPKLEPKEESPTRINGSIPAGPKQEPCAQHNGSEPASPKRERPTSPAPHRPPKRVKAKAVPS
# assay_comment: Sirt6-dependent peptide deacetylation, FLUOR DE LYS / Sirt6 fluorometric activity kit
# Format: biochemical
# particulars: compound at 30 μM, mean ± SD, at least two independent experiments
Lab note: cut-off is 2 fold. Strictly less in Activation Fold 30 μM is fulfilled. Exactly 2 fold or more is not fulfilled.

compound: c1ccc2c(c1)NC(c1cccnc1N1CCN(CCN3CCC3)CC1)c1cccn1-2 (stereo not drawn)
assayed_system: Sirt6 (Homo sapiens, UniProt Q8N6T7)
assigned_label: not fulfilled
--
compound: O=C1CCCN1CCN1CCN(c2ncccc2C2Nc3ccccc3-n3cccc32)CC1 (stereo not drawn)
assayed_system: Sirt6 (Homo sapiens, UniProt Q8N6T7)
assigned_label: not fulfilled
--
compound: COC(=O)c1ccc2c(c1)OC(c1cccnc1N1CCN(CCN(C)C)CC1)c1cccn1-2 (stereo not drawn)
assayed_system: Sirt6 (Homo sapiens, UniProt Q8N6T7)
assigned_label: not fulfilled
--
compound: O=S1(=O)CCN(c2ncccc2C2Nc3ccccc3-n3cccc32)CC1 (stereo not drawn)
assayed_system: Sirt6 (Homo sapiens, UniProt Q8N6T7)
assigned_label: fulfilled

Strictly below 2 fold: is that where Activation Fold 30 μM of OC1CCN(c2ncccc2C2Nc3ccccc3-n3cccc32)CC1 (stereo not drawn) sits?
fulfilled

Strictly below 2 fold: is that where Activation Fold 30 μM of CC(=O)N1CCN(c2ncccc2C2Nc3ccccc3-n3cccc32)CC1 (stereo not drawn) sits?
fulfilled

Strictly below 2 fold: is that where Activation Fold 30 μM of CN(C)CCN1CCN(c2ncccc2C2Oc3cc(CO)ccc3-n3cccc32)CC1 (stereo not drawn) sits?
fulfilled

Strictly below 2 fold: is that where Activation Fold 30 μM of COc1ccc2c(c1)-n1cccc1C(c1cccnc1N1CCN(CCN(C)C)CC1)O2 (stereo not drawn) sits?
not fulfilled

Strictly below 2 fold: is that where Activation Fold 30 μM of NC(=O)CN1CCN(c2ncccc2C2Nc3ccccc3-n3cccc32)CC1 (stereo not drawn) sits?
fulfilled

Strictly below 2 fold: is that where Activation Fold 30 μM of CN(C)CC(=O)N1CCN(c2ncccc2C2Nc3ccccc3-n3cccc32)CC1 (stereo not drawn) sits?
not fulfilled

Strictly below 2 fold: is that where Activation Fold 30 μM of c1ccc2c(c1)NC(c1cccnc1N1CCN(CCN3CCOCC3)CC1)c1cccn1-2 (stereo not drawn) sits?
not fulfilled

====

Entries and their Activation Fold 100 μM values follow.
# assayed_system: Sirt6 (Homo sapiens)
# assay_comment: Sirt6-dependent peptide deacetylation, FLUOR DE LYS / Sirt6 fluorometric activity kit
# Type: biochemical
# particulars: compound at 100 μM, mean ± SD, at least two independent experiments
Expressed in fold, but write only the number.

Look over these answered cases.
molecule: CN(C)C(=O)CN1CCN(c2ncccc2C2Nc3ccccc3-n3cccc32)CC1 (stereo not drawn)
quantity: Activation Fold 100 μM
quantitative_readout: 6.60
//
molecule: c1ccc2c(c1)NC(c1cccnc1N1CCN(CCN3CCC3)CC1)c1cccn1-2 (stereo not drawn)
quantity: Activation Fold 100 μM
quantitative_readout: 5.85
//
molecule: CN(C)CCN1CCN(c2ncccc2C2Nc3ccccc3-n3cccc32)CC1 (stereo not drawn)
quantity: Activation Fold 100 μM
quantitative_readout: 7.38

Please list Activation Fold 100 μM recorded for the molecule O=C(CCl)N1CCN(c2ncccc2C2Nc3ccccc3-n3cccc32)CC1 (stereo not drawn)
2.84

Please list Activation Fold 100 μM recorded for the molecule c1ccc2c(c1)NC(c1cccnc1N1CCN(CCN3CCOCC3)CC1)c1cccn1-2 (stereo not drawn)
5.99

Please list Activation Fold 100 μM recorded for the molecule NC(=O)CN1CCN(c2ncccc2C2Nc3ccccc3-n3cccc32)CC1 (stereo not drawn)
3.43

Please list Activation Fold 100 μM recorded for the molecule CN1CCCN(c2ncccc2C2Nc3ccccc3-n3cccc32)CC1 (stereo not drawn)
4.23

Please list Activation Fold 100 μM recorded for the molecule CN(C)CC(=O)N1CCN(c2ncccc2C2Nc3ccccc3-n3cccc32)CC1 (stereo not drawn)
3.78

Please list Activation Fold 100 μM recorded for the molecule OCCN1CCN(c2ncccc2C2Nc3ccccc3-n3cccc32)CC1 (stereo not drawn)
5.72
